Attribution: BindingDB's records for doi:10.1016/j.ejmech.2017.05.035

Recorded measurements of Ki, one per entry
- test_summary: Antagonist activity at Adenosine receptor subtype 2B in human RBC assessed as change in erythrocyte morphology incubated for 3 hrs with occasional gentle stirring for every 30 min measured for every 12 hrs by microscopic analysis
Output should be the measured figure followed by the unit it is expressed in.

Check out these entries, answers already filled in.
>>> test_value("Cc1ccc(N2CCN(C(=O)[C@H](C)Oc3ccc(-c4cc5c([nH]4)c(=O)n(C)c(=O)n5C)cc3)CC2)cc1")
"1.8 nM"
>>> test_value("CCCn1c(=O)n(C)c(=O)c2[nH]c(-c3ccc(O[C@@H](C)C(=O)N4CCN(c5nc6ccc(Cl)cc6s5)CC4)cc3)cc21")
"1 nM"

# context switch: different compound, same Ki
Reported Ki ( C[C@H](Oc1ccc(-c2cc3c([nH]2)c(=O)n(C)c(=O)n3C)cc1)C(=O)Nc1ccc(Br)cc1 ) = 1.3 nM

====

- test_summary: Antagonist activity at Adenosine receptor subtype 2B in human RBC assessed as change in erythrocyte morphology incubated for 3 hrs with occasional gentle stirring for every 30 min measured for every 12 hrs by microscopic analysis
assay_metric: pEC50
Bear in mind: pEC50 is minus log10 of a mol/L concentration; give just that figure.

Reported pEC50 ( CC(OC(=O)c1nccnc1N)C(=O)NCc1ccc2c(c1)OCO2 (stereo not given) ) = 7.33

Reported pEC50 ( Cc1cc(NC(=O)CNc2ccc3c(c2)OC(F)(F)O3)on1 ) = 7.46

Reported pEC50 ( CCCc1cc(O)nc(SC(C)C(=O)Nc2cc(C)no2)n1 (stereo not given) ) = 7.64

Reported pEC50 ( O=C(CN1CCOC(Cn2cncn2)C1)Nc1cccnc1 (stereo not given) ) = 7.77

Reported pEC50 ( CC(C)c1noc(OCC(=O)NCc2ccc3c(c2)OCO3)n1 ) = 7.46
